# assayedTarget: human OX2R (Homo sapiens, UniProt O43614)
# Construct: expressed in transfected cells; host or cells: CHO (Chinese hamster ovary) cells, line CHOOX2R, co-expressing NFAT-luciferase
# protocolNotes: Agonist activity against OX2R: intracellular calcium (Fura-2AM, FDSS7000) in CHOOX2R cells
# Format: cell-based
# protocolConditions: 0.1 μM test compound; relative to orexin-A as full agonist (100%)
# Protocol: Evaluation of Agonist Activity Against OX1R and OX2R […] (As used herein, Response in Table 21 to Table 27 is a value obtained by dividing the agonist activity value, when the test compound is evaluated with orexin-A as a full-agonist (maximum value of agonist activity: 100%), at 10 μM, 1.0 μM, 0.1 μM by the agonist activity value of orexin-A.)
Measured Response (%) OX2R, listed per entry.
measure: Response (%) OX2R

1. COc1ccc(-c2cccc(C(=O)N(C)C)c2)cc1S(=O)(=O)Nc1cccc(NC(=O)Nc2ccccc2C)c1 93
2. COc1ccc(-c2cccc(C(=O)N(C)C)c2)cc1S(=O)(=O)Nc1cccc(NC(=O)Nc2ccccc2)c1 55
3. COc1ccc(-c2cccc(C(=O)N(C)C)c2)cc1S(=O)(=O)Nc1cccc(NC(=O)Nc2cccc(C)c2)c1 68
4. COc1ccc(-c2cccc(C(=O)N(C)C)c2)cc1S(=O)(=O)Nc1cccc(NC(=O)Nc2cc([N+](=O)[O-])cc([N+](=O)[O-])c2)c1 7

---

# assayedTarget: human OX2R (Homo sapiens, UniProt O43614)
# Construct: expressed in transfected cells; host or cells: CHO (Chinese hamster ovary) cells, line CHOOX2R, co-expressing NFAT-luciferase
# Sequence (O43614 1-444): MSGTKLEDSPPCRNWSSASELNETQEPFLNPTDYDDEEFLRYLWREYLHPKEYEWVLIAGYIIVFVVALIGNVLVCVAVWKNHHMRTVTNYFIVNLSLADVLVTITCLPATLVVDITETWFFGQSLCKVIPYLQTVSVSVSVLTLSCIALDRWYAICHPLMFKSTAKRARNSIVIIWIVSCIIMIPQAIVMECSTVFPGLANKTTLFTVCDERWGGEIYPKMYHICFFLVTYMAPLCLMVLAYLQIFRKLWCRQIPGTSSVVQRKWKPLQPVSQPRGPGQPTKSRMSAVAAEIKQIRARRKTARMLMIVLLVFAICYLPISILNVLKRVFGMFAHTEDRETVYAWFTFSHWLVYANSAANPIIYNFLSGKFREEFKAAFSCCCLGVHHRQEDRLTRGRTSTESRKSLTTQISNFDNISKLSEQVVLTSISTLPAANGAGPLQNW
# protocolNotes: Agonist activity against OX2R: intracellular calcium (Fura-2AM, FDSS7000) in CHOOX2R cells
# Format: cell-based
# protocolConditions: 10 μM test compound; relative to orexin-A as full agonist (100%)
Returns one of Met or Not met; Met when Response (%) OX2R is >= 90%.

molecule	group
COc1ccc(-c2cccc(C(=O)N(C)C)c2)cc1S(=O)(=O)Nc1cccc(NCc2ccccc2O)c1 [Example 26]	Met
COc1ccc(-c2cccc(C(=O)N(C)C)c2)cc1S(=O)(=O)Nc1cccc(NC(=O)Nc2ccccc2[N+](=O)[O-])c1 [Example 46]	Met
COc1ccc(-c2cccc(C(=O)N(C)C)c2)cc1S(=O)(=O)Nc1cccc(NC(=O)Nc2ccccc2Br)c1 [Example 43]	Met
COc1ccc(-c2cccc(C(=O)N(C)C)c2)cc1S(=O)(=O)Nc1cccc(Nc2c(OC)c(=O)c2=O)c1 [Example 79]	Not met
COc1ccc(-c2cccc(C(=O)N(C)C)c2)cc1S(=O)(=O)Nc1cccc(NC(=O)Nc2ccc(NC(=NC(=O)OC(C)(C)C)NC(=O)OC(C)(C)C)cc2)c1 [Example 58]	Not met
COc1ccc(-c2cccc(C(=O)N(C)C)c2)cc1S(=O)(=O)Nc1cccc(NC(=O)c2cccc(Br)c2)c1 [Example 3]	Not met
COc1ccc(-c2cccc(C(=O)N(C)C)c2)cc1S(=O)(=O)Nc1cccc(NC(=O)Nc2cccc(Br)c2)c1 [Example 50]	Met
COc1ccc(-c2cccc(C(=O)N(C)C)c2)cc1S(=O)(=O)Nc1cccc(NCc2cccc(C)c2)c1 [Example 25]	Met
COc1ccc(-c2cccc(C(=O)N(C)C)c2)cc1S(=O)(=O)Nc1cccc(NC(=O)Nc2ccncc2)c1 [Example 70]	Not met
COc1ccc(-c2cccc(C(=O)N(C)C)c2)cc1S(=O)(=O)Nc1cccc(NC(=O)c2ccccc2)c1 [Example 1]	Not met
COc1ccc(-c2cccc(C(=O)N(C)C)c2)cc1S(=O)(=O)Nc1cccc(NC(=O)Nc2cc(OC)c(OC)c(OC)c2)c1 [Example 54]	Not met
COc1ccc(-c2cccc(C(=O)N(C)C)c2)cc1S(=O)(=O)Nc1cccc(NC(=O)Nc2cccnc2)c1 [Example 69]	Met
COc1cccc(CNc2cccc(NS(=O)(=O)c3cc(-c4cccc(C(=O)N(C)C)c4)ccc3OC)c2)c1 [Example 23]	Not met

---

# assayedTarget: human OX2R (Homo sapiens, UniProt O43614)
# Construct: expressed in transfected cells; host or cells: CHO (Chinese hamster ovary) cells, line CHOOX2R, co-expressing NFAT-luciferase
# protocolNotes: Agonist activity against OX2R: intracellular calcium (Fura-2AM, FDSS7000) in CHOOX2R cells
# Assay type: cell-based
# protocolConditions: 10 μM test compound; relative to orexin-A as full agonist (100%)
With a cut-off of 90%, any Response (%) OX2R strictly below it is called True; any Response (%) OX2R meeting it or above is called False.

1. COc1ccc(-c2cccc(C(=O)N(C)C)c2)cc1S(=O)(=O)Nc1cccc(NC(=O)Nc2cccc(NC(=N)N)c2)c1 True
2. COc1ccc(-c2cccc(C(=O)N(C)C)c2)cc1S(=O)(=O)Nc1cccc(NC(=O)NCc2ccccc2)c1 True
3. COc1ccc(-c2cccc(C(=O)N(C)C)c2)cc1S(=O)(=O)Nc1cccc(NC(=O)Nc2cc([N+](=O)[O-])cc([N+](=O)[O-])c2)c1 False
4. COc1ccc(-c2cccc(C(=O)N(C)C)c2)cc1S(=O)(=O)Nc1cccc(NC(=O)Nc2ccc(N(C)C)cc2)c1 True
5. COc1ccc(-c2cccc(C(=O)N(C)C)c2)cc1S(=O)(=O)Nc1cccc(NC(=O)Nc2cccs2)c1 False

---

# assayedTarget: human OX2R (Homo sapiens)
# Construct: expressed in transfected cells; host or cells: CHO (Chinese hamster ovary) cells, line CHOOX2R, co-expressing NFAT-luciferase
# protocolNotes: Agonist activity against OX2R: intracellular calcium (Fura-2AM, FDSS7000) in CHOOX2R cells
# Format: cell-based
# protocolConditions: test compound 10 μM; relative to orexin-A as full agonist (100%)
With a cut-off of 70%, any Response (%) OX2R strictly below it is called TRUE; any Response (%) OX2R meeting it or above is called FALSE.

1) COc1ccc(-c2cccc(C(=O)N(C)C)c2)cc1S(=O)(=O)Nc1cccc(N(C)C(=O)N(C)c2cccc(N(C)C)c2)c1 FALSE
2) COc1ccc(C(=O)NCCNC(=O)OC(C)(C)C)cc1S(=O)(=O)Nc1cccc(NC(=O)Nc2cccc(N(C)C)c2)c1 FALSE
3) COc1ccc(C(=O)Nc2cccc(N(C)C)c2)cc1S(=O)(=O)Nc1cccc(NC(=O)Nc2cccc(N(C)C)c2)c1 TRUE
4) CCN(Cc1cccnc1)C(=O)c1ccc(OC)c(S(=O)(=O)Nc2cccc(NC(=O)Nc3cccc(N(C)C)c3)c2)c1 FALSE
5) C=CC(=O)NCCN(C(=O)C=C)c1cccc(NS(=O)(=O)c2cc(-c3cccc(C(=O)N(C)C)c3)ccc2OC)c1 TRUE
6) Cc1ccc(-c2cccc(C(=O)N(C)C)c2)cc1S(=O)(=O)Nc1cccc(NC(=O)Nc2cccc(N(C)C)c2)c1 TRUE
7) COc1ccc(C(=O)NCc2ccccc2)cc1S(=O)(=O)Nc1cccc(NC(=O)Nc2cccc(N(C)C)c2)c1 TRUE
8) COc1ccc(-c2cccc(C(=O)N(C)C)c2)cc1S(=O)(=O)Nc1cccc(N=Nc2ccc(O)cc2NC(=O)OC(C)(C)C)c1 TRUE
9) COc1ccc(Nc2c(Nc3cccc(NS(=O)(=O)c4cc(-c5cccc(C(=O)N(C)C)c5)ccc4OC)c3)c(=O)c2=O)cc1 TRUE
10) COc1ccc(-c2cccc(C(=O)N(C)C)c2)cc1S(=O)(=O)Nc1ccccc1NC(=O)Nc1cccc(N(C)C)c1 FALSE
11) CCN(Cc1cccnc1)C(=O)c1ccc(OC)c(S(=O)(=O)Nc2cccc(NC(=O)Nc3ccccc3N(C)C)c2)c1 FALSE
12) COc1ccc(-c2cccc(C(=O)N(C)C)c2)cc1S(=O)(=O)Nc1cccc(N2CCN(c3ccccc3N(C)C)C2=O)c1 FALSE
13) COc1ccc(C(=O)NCCCNC(=O)OC(C)(C)C)cc1S(=O)(=O)Nc1cccc(NC(=O)Nc2cccc(N(C)C)c2)c1 FALSE
14) COc1ccc(-c2cccc(C(=O)N(C)C)c2)cc1S(=O)(=O)Nc1cccc(N2CCN(C(=O)c3cccc(C)c3)C2)c1 FALSE
15) COc1ccc(-c2cccc(C(=O)N(C)C)c2)cc1S(=O)(=O)Nc1cccc(N(CCNC(=O)OC(C)(C)C)Cc2ccccc2)c1 TRUE
16) COc1ccc(C(=O)NCC(C)(C)CN(C)C)cc1S(=O)(=O)Nc1cccc(NC(=O)Nc2cccc(N(C)C)c2)c1 FALSE
17) COc1ccc(-c2cccc(C(=O)N(C)C)c2)cc1S(=O)(=O)Nc1cccc(N(C)C)c1 TRUE
18) COc1ccc(-c2cccc(C(=O)N(C)C)c2)cc1S(=O)(=O)Nc1cccc(N2CCN(c3cccc(N(C)C)c3)C2=O)c1 FALSE
19) COc1ccc(-c2cccc(C(=O)N(C)C)c2)cc1S(=O)(=O)Nc1cccc(N2CCN(c3ccccc3)C2=O)c1 FALSE
20) COc1cccc(S(=O)(=O)Nc2cccc(NS(=O)(=O)c3cc(-c4cccc(C(=O)N(C)C)c4)ccc3OC)c2)c1 TRUE
21) COc1ccc(-c2cccc(C(=O)N(C)C)c2)cc1S(=O)(=O)Nc1cccc(N2CCCCN(c3cccc(N(C)C)c3)C2=O)c1 FALSE
22) COc1ccc(-c2cccc(C(=O)N(C)C)c2)cc1S(=O)(=O)Nc1cccc(N2CCN(c3ccc(N(C)C)cc3)C2=O)c1 FALSE
23) CCN(Cc1ccccc1)C(=O)c1ccc(OC)c(S(=O)(=O)Nc2cccc(NC(=O)Nc3cccc(N(C)C)c3)c2)c1 FALSE
24) CN(C)C(=O)c1cccc(-c2ccc(O)c(S(=O)(=O)Nc3cccc(NC(=O)Nc4cccc(N(C)C)c4)c3)c2)c1 TRUE
25) COc1ccc(-c2cccc(C(=O)N(C)C)c2)cc1S(=O)(=O)Nc1cccc(NS(=O)(=O)N(C)C)c1 TRUE

Attribution: patent US10351522B2
